measurementTarget: Fuc(a1-2)Gal(b1-4)GlcNAc(b1-3)Gal(b1-4)GlcNAc(b1-2)Man(a1-3)[Fuc(a1-2)Gal(b1-4)GlcNAc(b1-3)Gal(b1-4)GlcNAc(b1-2)Man(a1-6)]Man(b1-4)GlcNAc(b1-4)GlcNAc
assaySummary: glycan array binding signal (z-score within array); higher = stronger binding
appliedConditions: glycan notation: IUPAC condensed, linker removed
The entries come from a sample that favours the strongest signals as a whole.
# reported glycan array binding signal (z-score); entries follow
The reply should be a number, written without any unit.

Example cases with answers are listed next.
{"binder": "Pwp3 (Candida glabrata) (protein) MGSSHHHHHHSSGLVPRGSHMASKNPVDFTTVCQFPDNFSKKPGFLATTARLGLWITGNSYKELLNYPGTFTLTTQQASTTTPNIQLRGTDLFTTIYGLTVYPLYLLVELQGYFVPTQSGMYTFSLTGSDDAAIIFIGNPSTFPCDAFKTWPQATANDITVTDSINPSRTLYMVKGVAYPLRIAYYNGLGNGVLNAAFTDPSGTKRTDWNGYIWQYDQCSTCTYK", "glycan array binding signal (z-score)": -0.363}
{"binder": "SJCP1084 (Schistosoma japonicum) (protein) MRIINLVIISTALLLINLLQTKSQANGEDTKNGTPDDPGLTKSTELKVEVQALLKDKKTNMRVKWNENLLDNTKPEYHNLRDEACELLLQIVRSVVPLSQDDGECKDVTFTKYVVGTKDGAVNVKLTITFKDSVAINQKPMDLKLKLENDFKNLQSESTLKATKPTFTVKVEKRLIPISKPQTTPPTTAKNDASKENVGDIGGEDSTVPTAAPATAASANEEKDEGDKDNKDSQHPNVLTSNVNDRNLIIALVALMILAIGVALTAAVKQR", "glycan array binding signal (z-score)": 4.99}
{"binder": "Mg1lysM (Mycosphaerella graminicola) (protein) QRNPITITPQFDCGATNSQQYVARSGDTLTKIAQEIYHDVVGVCDIARANNLADPNRIDAGTPYTIPINCQTYDRNSCL", "glycan array binding signal (z-score)": -0.081}
{"binder": "SSR2 (Sclerotium rolfsii) (protein) MVYKITVRVYQTNPDAFFHPVEKTVWKYANGGTWSITDDQHVLTMGGSGTSGTLRFHADNGESFTATFGVHNYKRWCDIVTNLAADETGMVINQQYYSQKNREEARERQLSNYQVKNAKGRNFQIVYTEAEGNDLHANLIIG", "glycan array binding signal (z-score)": -0.273}

[Q] Requested field: glycan array binding signal (z-score). Item: LecB PA14 (Pseudomonas aeruginosa) (protein) MATQGVFTLPANTQFGVTAFANSAGTQTVNVQVNNETVATFTGQSTNNAIIGSKVLNSGGGGKVQILVSVNGRSSDLVSAQVILANELNFALVGSEDSTDNDYNDAVVVINWPLG
[A] 7.45

[Q] Requested field: glycan array binding signal (z-score). Item: BC2LB (Burholderia cenocepacia), B4EH85_BURCJ (protein) MGSSHHHHHHSSGENLYFQGHMSQPFTHDDLYALLQLAGNDATAVQANGDQAVLDRMRQFMTAQLVEKLPQYDVFVDIATIPYSFDVGSWQNKVKTDAAGEVVACTVTWAGAPGVLPGAAAKFGVGAVVNYFSKATPH
[A] 0.245

[Q] Requested field: glycan array binding signal (z-score). Item: CFEM-CGl (Candida glabrata), Q6FRS0 (protein) VLATPPACLLACVAQVSKQSSQCHTLNQVGCFCENENTAIKNCLDSICPNGNSDAAYTAFKNSCGDVGKAVASV
[A] -0.168
